normalized growth by entry:
- method: chemical genetic growth profiling, strain panel (AID 1159580);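 note: tested at 20 µM; growth read once vehicle control cultures reached saturation at 30 °C; 1 = growth at the plate median or of vehicle wells; lower values mean less growth of the strain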
- run conditions: S. cerevisiae deletion strains, growth OD, locus YCL016C, strain dcc1, active compounds read low
Screen size: about 5,500 compounds; about 2,000 (36%) were called active. Not shown: some 18% with an inconclusive outcome. The list shows a part of the results.
Form: value (number only, do not type unit).

1. CCCCNC(=O)NS(=O)(=O)c1ccc(C)cc1
0.993
2. NCCCS(=O)(=O)O
1.01
3. CN1CC(=O)N=C1N
1.02
4. Cn1c(=O)c2c(ncn2CC(O)CO)n(C)c1=O (stereo unspecified)
1.01
5. Nc1ncn[nH]1
1.02

Now take the following compound into account.
Task item: # input compound: CNCCC(Oc1ccc(C(F)(F)F)cc1)c1ccccc1 (stereo unspecified) ; wanted: its normalized growth
Reply: 0.995

---

- method: chemical genetic growth profiling, strain panel (AID 1159580)
- run conditions: S. cerevisiae deletion strains, growth OD, locus YER110C
About 2,000 (36%) of roughly 5,500 compounds were called active. About 18% were inconclusive and are not listed. Cut-off read from the data, not from the text of the source: active = normalized growth mostly below about 0.91 (no sharp cut-off); inconclusive = no clear call, values can overlap the other calls; inactive = mostly above about 0.92. This is one part of the list.
Form entry, call: pick from active, inactive

1) COC(=O)[C@@H]1OC(=O)C2OC23[C@@]1(C)CCC1[C@]2(C)C(C[C@H](O)[C@]13C)C(C)(C)[C@H](OC(C)=O)C[C@@H]2OC(C)=O (some centres undefined)
inactive

Now for another entry.
Task item: Which outcome was assigned to COc1ccc2c(c1)OC1(O)COc3cc(OC)c(OC)cc3C1=C2 (centres undefined) in this test?
Reply: inactive

---

- method: chemical genetic growth profiling, strain panel (AID 1159580)
- run conditions: S. cerevisiae deletion strains, growth OD, locus YPL241C, strain CIN2, active compounds read low
About 2,000 (36%) of roughly 5,500 compounds were called active. About 18% were inconclusive and are not listed. Some of the results follow.
property label: normalized growth
Give a plain numeric answer without units written out.

Please review the entries below; each comes with its answer.
1. CCCCCCC(C)OC(=O)COc1cc(Cl)c(Cl)cc1Cl (stereo not given)
0.999
2. NC(=O)c1ccc[n+]([C@@H]2O[C@H](COP(=O)([O-])OP(=O)(O)OC[C@H]3O[C@@H](n4cnc5c(N)ncnc54)[C@H](OP(=O)(O)O)[C@@H]3O)[C@@H](O)[C@H]2O)c1
1.02
3. COC(=O)[C@@H]1OC(=O)C2OC23[C@@]1(C)CCC1[C@]2(C)C(C[C@H](O)[C@]13C)C(C)(C)[C@H](OC(C)=O)C[C@@H]2OC(C)=O (stereo not given in full)
1.01
4. O=C(O)[C@@H]1CCN1
1.01

Task item: Need normalized growth of COc1ccc(C(CN(C)C)C2(O)CCCCC2)cc1 (stereo not given) , thanks.
Reply: 1

Task item: Quick one: COc1ccc(C(=O)CC(=O)O)c2c1C=CC(C)(C)O2
Reply: 0.996

Task item: One more compound: NC(Cc1cccc(-c2ccccc2CP(=O)(O)O)c1)C(=O)O (stereo not given)
Reply: 1

Task item: Then what about the compound O=C(O)CSCc1ccccc1 ?
Reply: 1

Task item: Try this compound too: Cc1oc(C(C)(C)C)cc1C(=O)Nc1ccc([N+](=O)[O-])cc1
Reply: 0.997

Task item: Same read-out for Cc1nn(C)c(C)c1[N+](=O)[O-] ?
Reply: 1

---

- method: chemical genetic growth profiling, strain panel (AID 1159580)
- run conditions: S. cerevisiae deletion strains, growth OD, locus YNR049C, strain mso1, active compounds read low
In all, about 5,500 compounds went through this assay and about 2,000 (36%) were called active. About 18% were inconclusive and are not listed. The list shows a part of the results.
property label: normalized growth

# annotated cases, reported normalized growth shown
1. N[C@@H](Cc1ccc(N(CCCl)CCCl)cc1)C(=O)O
0.977 (inactive)
2. NCCCS(=O)(=O)O
1.01 (inactive)
3. Cc1ccc(S(=O)(=O)NC(=O)NN2CCCCCC2)cc1
0.967 (inactive)
4. COc1ccc(CN(CCN(C)C)c2ccccn2)cc1
1.01 (inactive)

Now take the following compound into account.
Task item: Recorded normalized growth for CC1COc2c(N3CCN(C)CC3)c(F)cc3c(=O)c(C(=O)O)cn1c23 (stereo not given) , please?
Reply: 0.986 (inactive)

---

- method: chemical genetic growth profiling, strain panel (AID 1159580)
- run conditions: S. cerevisiae deletion strains, growth OD, locus YLR113W, strain HOG1, active compounds read low
In all, about 5,500 compounds went through this assay and about 2,000 (36%) were called active. About 18% were inconclusive and are not listed. This is one part of the list.
property label: normalized growth
Give the figure only, with no unit attached.

1. CCCCC/C=C/CCC(=O)N[C@H]1[C@H](Oc2c3cc4cc2Oc2ccc(cc2Cl)[C@@H](O[C@@H]2O[C@H](CO)[C@@H](O)[C@H](O)[C@H]2NC(C)=O)[C@@H]2NC(=O)[C@H](NC(=O)[C@@H]4NC(=O)[C@H]4NC(=O)C(Cc5ccc(c(Cl)c5)O3)NC(=O)[C@H](N)c3ccc(O)c(c3)Oc3cc(O)cc4c3)c3ccc(O)c(c3)-c3c(OC4O[C@H](CO)[C@@H](O)[C@H](O)[C@@H]4O)cc(O)cc3[C@@H](C(=O)O)NC2=O)O[C@H](CO)[C@@H](O)[C@@H]1O (stereo not given in full)
0.942

Task item: Sample Oc1cc(O)c2c(c1)O[C@H](c1ccc(O)c(O)c1)[C@H](O)C2 — what was its normalized growth?
Reply: 1.02

Task item: Continue with Oc1cc(O)c2c(c1)O[C@H](c1ccc(O)c(O)c1)[C@@H](O)C2
Reply: 0.987

Task item: # repeat for CCC[C@H](N[C@@H](C)C(=O)N1[C@H](C(=O)O)C[C@@H]2CCCC[C@@H]21)C(=O)OCC
Reply: 0.988

Task item: Same question, CCCc1cc(C(N)=S)ccn1 this time
Reply: 0.997

---

Below: a set of entries, each annotated with reported normalized growth.
- method: chemical genetic growth profiling, strain panel (AID 1159580);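 note: tested at 20 µM; growth read once vehicle control cultures reached saturation at 30 °C; 1 = growth at the plate median or of vehicle wells; lower values mean less growth of the strain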
- run conditions: S. cerevisiae deletion strains, growth OD, locus YML094W, strain GIM5, active compounds read low
The whole screen tested about 5,500 compounds, of which about 2,000 (36%) were called active. About 18% were inconclusive and are not listed. The list shows a part of the results.
Please give only the number in your answer, with no unit.

1. Cc1cc(=O)n2[nH]cnc2n1
0.985
2. O=[N+]([O-])c1ccc(OCCO)c([N+](=O)[O-])c1
1
3. O=C(O)c1cncc(C#Cc2ccccc2)c1
1.02
4. O=[N+]([O-])c1cc(C(F)(F)F)c(N2CCCCC2)cc1N1CCCCC1
0.973
5. O=C(CC1NCCN(Cc2ccccc2)C1=O)Nc1ccc(Cl)cc1 (centres undefined)
1.01

Task item: Data request, read-out normalized growth, for CSc1nc(N)n(-c2ccccc2)n1
Reply: 0.988

Task item: Another compound to check: COc1c(Br)cc([N+](=O)[O-])c(OC)c1C(N)=O
Reply: 1

Task item: Note, next up: O=[N+]([O-])c1ccc(S(=O)(=O)N2CCCCC2)cc1
Reply: 0.999

Task item: Please do the same for S=c1nc2[nH]c3ccccc3c2n[nH]1 as well.
Reply: 0.978

---

- method: chemical genetic growth profiling, strain panel (AID 1159580);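 note: tested at 20 µM; growth read once vehicle control cultures reached saturation at 30 °C; 1 = growth at the plate median or of vehicle wells; lower values mean less growth of the strain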
- run conditions: S. cerevisiae deletion strains, growth OD, locus YDR162C, strain NBP2, active compounds read low
Out of some 5,500 compounds screened, about 2,000 (36%) were called active. Another 18% or so got no clear call; they are omitted. Some of the results follow.
property label: normalized growth
Reply with just the number.

Past entries and their recorded results:
1. Cn1c(=O)c2c(ncn2CC(O)CO)n(C)c1=O (configuration not stated)
1.02
2. CCn1cc(C(=O)O)c(=O)c2cc(F)c(N3CCNCC3)nc21
1.02

Task item: Consider the molecule O=C1C(Cl)=C(Cl)C(=O)C(Cl)=C1Cl and give its measured normalized growth.
Reply: 0.384

Task item: Please answer likewise for CN1CC(=O)N=C1N
Reply: 1.02

Task item: # repeat for CNCCC(Oc1ccc(C(F)(F)F)cc1)c1ccccc1 (configuration not stated)
Reply: 0.992

Task item: Now the same for CCCCCCC(C)OC(=O)COc1cc(Cl)c(Cl)cc1Cl (configuration not stated)
Reply: 0.964

Task item: Next molecule up: O=S(=O)(O)CCS
Reply: 1.01

---

# normalized growth per entry
- method: chemical genetic growth profiling, strain panel (AID 1159580);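 note: tested at 20 µM; growth read once vehicle control cultures reached saturation at 30 °C; 1 = growth at the plate median or of vehicle wells; lower values mean less growth of the strain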
- run conditions: S. cerevisiae deletion strains, growth OD, locus YPL051W, strain arl3, active compounds read low
In all, about 5,500 compounds went through this assay and about 2,000 (36%) were called active. About 18% were inconclusive and are not listed. Some of the results follow.
# respond with the number and nothing more

Example cases with answers are listed next.
1) COc1ccc(-c2coc3cc(O)ccc3c2=O)c(OC)c1O
1
2) CCCCC/C=C/CCC(=O)N[C@H]1[C@H](Oc2c3cc4cc2Oc2ccc(cc2Cl)[C@@H](O[C@@H]2O[C@H](CO)[C@@H](O)[C@H](O)[C@H]2NC(C)=O)[C@@H]2NC(=O)[C@H](NC(=O)[C@@H]4NC(=O)[C@H]4NC(=O)C(Cc5ccc(c(Cl)c5)O3)NC(=O)[C@H](N)c3ccc(O)c(c3)Oc3cc(O)cc4c3)c3ccc(O)c(c3)-c3c(OC4O[C@H](CO)[C@@H](O)[C@H](O)[C@@H]4O)cc(O)cc3[C@@H](C(=O)O)NC2=O)O[C@H](CO)[C@@H](O)[C@@H]1O (stereo partly specified)
1.01
3) COc1ccc(-c2coc3cc(O)ccc3c2=O)c(O)c1O
0.686
4) COc1ccc(C(c2ccc(OC)cc2)C(Cl)(Cl)Cl)cc1
0.978
5) OCC(O)CN1CCN(c2ccccc2)CC1 (stereo unspecified)
0.974

Attention now shifts to the item below.
Task item: Which normalized growth is reported for this compound? CN1C2C[C@H](OC(=O)[C@H](CO)c3ccccc3)C[C@H]1[C@@H](O)C2
Reply: 1
